# Tested on: S. mutans
# assay.procedure: (D) Further tests on adherence to teeth
# Assay type: cell-based, Streptococcus mutans
# test.conditions: glass slide; 0.055 molar; Duncan procedure
# Experimental: The extent to which cells of S. mutans adhere to teeth was investigated using a recognized model system. […] While recording the pH during the tests of (C), the adherence was monitored in the same way as in (B). The percentage coverage of a glass slide was determined at 0.5 and 4 hours for each solution, and the results treated by the Duncan procedure.
Record 1.0 whenever % coverage after 4 hours is at 60% or higher; record 0.0 when lower.

# structure.as.smiles, label.class
measured = [
    ("OC[C@H]1O[C@@](CCl)(O[C@H]2O[C@H](CO)[C@@H](O)[C@H](O)[C@H]2O)[C@@H](O)[C@@H]1O", 0.0),
    ("O[C@@H]1[C@@H](O)[C@@H](O[C@]2(CCl)O[C@H](CCl)[C@@H](O)[C@@H]2O)O[C@H](CCl)[C@H]1O", 0.0),
    ("OC[C@H]1O[C@H](O[C@]2(CCl)O[C@H](CCl)[C@@H](O)[C@@H]2O)[C@H](O)[C@@H](O)[C@@H]1O", 1.0),
    ("OC[C@H]1O[C@@](CO)(O[C@H]2O[C@H](CO)[C@@H](O)[C@H](O)[C@H]2O)[C@@H](O)[C@@H]1O", 1.0),
    ("OC[C@@]1(O[C@H]2O[C@H](CCl)[C@H](Cl)[C@H](O)[C@H]2O)O[C@H](CCl)[C@@H](O)[C@@H]1O", 1.0),
]

The reported numbers originate from patent US4389394A.
